# target_or_test_system: Coagulation factor X (Homo sapiens)
# Sequence (P00742 41-179 limits assumed): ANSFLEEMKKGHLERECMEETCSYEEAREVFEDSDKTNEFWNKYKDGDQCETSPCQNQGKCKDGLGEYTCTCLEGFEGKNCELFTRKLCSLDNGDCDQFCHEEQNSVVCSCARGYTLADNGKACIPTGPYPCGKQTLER
# Sequence (P00742 235-488 limits assumed): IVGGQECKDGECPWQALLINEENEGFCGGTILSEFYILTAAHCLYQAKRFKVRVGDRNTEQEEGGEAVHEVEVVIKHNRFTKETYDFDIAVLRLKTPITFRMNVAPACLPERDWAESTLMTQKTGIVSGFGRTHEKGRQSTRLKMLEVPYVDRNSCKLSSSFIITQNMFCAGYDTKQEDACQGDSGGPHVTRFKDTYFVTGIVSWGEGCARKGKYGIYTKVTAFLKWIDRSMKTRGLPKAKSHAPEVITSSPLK
# assay_text: Inhibition of human factor10a assessed as reduction in hydrolysis of chromogenic substrate S-2765 by Cheng-Prusoff equation analysis
pKi: −log10 of the molar value.
Label 1.0 when pKi >= 5; otherwise 0.0.

Ask | Textbook exercise: given the entry `CC(C)N1CCC(C(=O)Nc2c(OCCCO[C@@H]3O[C@H](CO)[C@@H](O)[C@H](O)[C@H]3O)cccc2OCc2cc(-c3ccc(Cl)s3)on2)CC1` , state whether its pKi is greater than or equal to 5.
Reply | 1.0

Ask | Kindly determine if pKi recorded for `CC(C)N1CCC(C(=O)Nc2ccccc2OCc2cc(-c3ccc(Cl)s3)on2)CC1` is above or exactly 5.
Reply | 1.0

Ask | Does `Nc1c(OCCCO[C@@H]2O[C@H](CO)[C@@H](O)[C@H](O)[C@H]2O)cccc1OCc1cc(-c2ccc(Cl)s2)on1` have a reported pKi of at least 5?
Reply | 1.0

Ask | Quick check, pKi >= 5? `Nc1c(OCCCO)cccc1OCc1cc(-c2ccc(Cl)s2)on1`
Reply | 0.0

Consider the additional compound presented here.
Ask | Please check the record `CC(=O)OC[C@H]1O[C@@H](OCCCOc2cccc(OCc3cc(-c4ccc(Cl)s4)on3)c2NC(=O)C2CCN(C(C)C)CC2)[C@H](OC(C)=O)[C@@H](OC(C)=O)[C@@H]1OC(C)=O` and state if its pKi is at or above 5.
Reply | 1.0
